- test_protocol: melting temperature; fluorescence melt of hairpins on a sequencing array, two-state fit, raised by 9.35 °C to match UV melts
- conditions_used: sodium 0.088 M
Quick list: Tm per entry.
Your answer should be a plain number; it is taken to be in °C.

GCACTGGGAAACCAGCAC (..((((....))))..) ... 27.3
GGCCAACCGAAAGGTGCC (((..(((....)))))) ... 50.4
GAGACGCCGAAAGGCCTC (((..(((....)))))) ... 30.6

[ask] Could you tell me which Tm is on file for GATAACGAAAGTTAGATC ((((((....)))..))) ?
[reply] 35.3

[ask] Also check GCGGAGCGAAAGCCGCGC (((..((....))..)))
[reply] 66.1

[ask] Also check GGTCGAGCGAAAGCTACC (((..(((....))))))
[reply] 33.3

---

- test_protocol: folding enthalpy; higher = less favourable; fluorescence melt of hairpins on a sequencing array, two-state fit
- conditions_used: sodium 0.088 M
Rule: 1 for folding enthalpy not less than -20 kcal/mol, -1 for anything less.

GACTGTGGAAACATGGTC (((..((....))..))) ... -1

[ask] I'd appreciate it if you could say whether GTTTCCGAAAGGAGAAC ((((((....))).))) has folding enthalpy at least equal to -20 kcal/mol.
[reply] 1

[ask] Also check GTCCAGGCGAAAGCCGAC (((..(((....))))))
[reply] 1

[ask] Also check GCCTACGAAAGTAGTGGC ((((((....)))..)))
[reply] -1

[ask] Also check GGCCTGCCGAAAGGCGCC (((..(((....))))))
[reply] 1

[ask] Also check GATCTAAAACTAGATC ((((((....))))))
[reply] -1

---

- test_protocol: melting temperature; fluorescence melt of hairpins on a sequencing array, two-state fit, raised by 9.35 °C to match UV melts
- conditions_used: sodium 0.088 M
Quick list: Tm per entry.
Your answer should be a plain number; it is taken to be in °C.

GTATGAGGAAACCCATAC (((((.(....).))))) ... 35.3
GTGAGGGGAAACCCCCAC (((.(((....))).))) ... 49.2
GAGTACGAAAGTAGCCTC ((((((....)))..))) ... 27.3
GCGTAAGGAAACCTACGC (((((.(....).))))) ... 49
GCACCGGGAAACCGGTAC (.(((((....))))).) ... 41

Please examine the following record next.
[ask] Could you tell me which Tm is on file for GACTTCGGAAACGAAGCC (.(((((....))))).) ?
[reply] 45.6

---

- test_protocol: folding enthalpy; higher = less favourable; fluorescence melt of hairpins on a sequencing array, two-state fit
- conditions_used: sodium 0.088 M
measured_endpoint: folding enthalpy (kcal/mol)
Your answer should be a plain number; it is taken to be in kcal/mol.

A selection of reference data follows.
GTGTCCGGAAACGGGCAC (((.(((....))).))) ... -32.4
CGATCCGGAAACGGCTCG (((.(((....))).))) ... -28.7
GGATCCGAAAGGACCTCC ((((((....)))..))) ... -15.5
GATCAGTTGCCTGATC ((((((....)))))) ... -41.1
GAGAAGCGAAAGCTCTC (((.(((....)))))) ... -20.1

[ask] Could you tell me which folding enthalpy is on file for GATGGGGGAAACCCTATC (((.(((....))).))) ?
[reply] -23.4

[ask] Also check CGGTCGCGGAAACGCCCG (((..(((....))))))
[reply] -20.9

[ask] Also check GACTCCGGAAACGAAGTC ((((.((....)).))))
[reply] -29.4

[ask] Also check GATCTAGACGTAGATC ((((((....))))))
[reply] -38.9

[ask] Also check GCCGGTGGAAACGCTGGC (((.(.(....).).)))
[reply] -40.9

[ask] Also check GCAAAGGGAAACTTTTGC (((((.(....).)))))
[reply] -26.8

[ask] Also check GCGACTGGAAACAGCCGC (((.(((....))).)))
[reply] -51.9

[ask] Also check GGCAGGACGAAAGTCGCC (((..(((....))))))
[reply] -38.2

[ask] Also check GATCATGCGATGATC ((((((...))))))
[reply] -31.9

[ask] Also check GTTCCCGGAAACGGGGAC ((.((((....)))).))
[reply] -26.8

[ask] Also check GACGGCGGAAACGCCGCC (.(((((....))))).)
[reply] -8.56

[ask] Also check GCGCTGCGAAAGCCGTGC ((.(.((....)).).))
[reply] -21.5

[ask] Also check GAAGACGAAAGTCATTTC ((((((....)))..)))
[reply] -8.24

[ask] Also check GATCGCCGACGCGATC ((((((....))))))
[reply] -35.7

[ask] Also check GAAGTGGGAAACTACTTC (((((.(....).)))))
[reply] -37.4

[ask] Also check GCTGGAACGAAAGTTAGC (((..(((....))))))
[reply] -18.1

[ask] Also check GCGCGGCGAAAGCCATGC ((..(((....)))..))
[reply] -16.4

[ask] Also check GACGAGGGAAACTTCGTC (((((.(....).)))))
[reply] -40.8

[ask] Also check GTACAGGGAAACCTGTAC (((((((....)))))))
[reply] -40.3

[ask] Also check GATCATCACCATGATC ((((((....))))))
[reply] -36.1

---

- test_protocol: folding enthalpy; higher = less favourable; fluorescence melt of hairpins on a sequencing array, two-state fit
- conditions_used: sodium 0.088 M
Rule: Satisfied for folding enthalpy not less than -30 kcal/mol, Not satisfied for anything less.

Previously resolved entries follow.
GGAGTTGGAAACGATTCC (((.(.(....).).))) ... Satisfied
GAACGACGAAAGTCCTTC (((.(((....))).))) ... Satisfied
GCCTCGCGAAAGCCGGGC (((..((....))..))) ... Satisfied
GCTATGCGAAAGCGAAGC (((..((....))..))) ... Satisfied
GAAGTGCGAAAGCAATTC (((.(((....))).))) ... Satisfied
GACCGCGAAAGCGCCGTC ((((((....)))..))) ... Satisfied

[ask] I'd appreciate it if you could say whether GACGCTACGAAAGTAGTC (((..(((....)))))) has folding enthalpy at least equal to -30 kcal/mol.
[reply] Satisfied

[ask] Also check GCAAAAGCGAAAGCTTGC (((..(((....))))))
[reply] Satisfied

[ask] Also check GCAGAACCGAAAGGTTGC (((..(((....))))))
[reply] Satisfied

---

- test_protocol: melting temperature; fluorescence melt of hairpins on a sequencing array, two-state fit, raised by 9.35 °C to match UV melts
- conditions_used: sodium 0.088 M
measured_endpoint: Tm (°C)
Your answer should be a plain number; it is taken to be in °C.

GGGGACGCGAAAGCGCCC (((..(((....)))))) ... 60
GCCCAGCGAAAGCACGGC (((..((....))..))) ... 52.1
GATGAGGGAAACCTCACC (.(((((....))))).) ... 35.5
GTTCGCTCGAAAGAGAAC (((..(((....)))))) ... 37.5
GATCACTCAGTGATC ((((((...)))))) ... 58.3

Please examine the following record next.
[ask] Could you tell me which Tm is on file for GATCAAATTCTTGATC ((((((....)))))) ?
[reply] 41.4

---

Quick list: folding enthalpy per entry.
- test_protocol: folding enthalpy; higher = less favourable; fluorescence melt of hairpins on a sequencing array, two-state fit
- conditions_used: sodium 0.088 M
Your answer should be a plain number; it is taken to be in kcal/mol.

CGGAGCCGGAAACGGCCG (((..(((....)))))) ... -11.2
GCAGTACGAAAGTATTGC (((.(((....))).))) ... -45.2
GTCATAACGAAAGTTGAC (((..(((....)))))) ... -24.4
GCGGCGCGAAAGCCCTGC ((.(.((....)).).)) ... -18.3
CGCGGACCTTCCGCG ((((((...)))))) ... -28.5

[ask] Could you tell me which folding enthalpy is on file for GCTGTGCCGAAAGGCAGC (((..(((....)))))) ?
[reply] -10.3

[ask] Also check GATCGCGAAAGCGGATC ((((((....))).)))
[reply] -16.4

[ask] Also check ACGGGGAAACCCGT (((((....)))))
[reply] -17.3

[ask] Also check GAGTCGGCGAAAGCCCTC (((..(((....))))))
[reply] -9.6

[ask] Also check GATCTCAGTAGAGATC ((((((....))))))
[reply] -37.4

[ask] Also check GTCGGGCGAAAGCCAGAC (((.(((....))).)))
[reply] -30

[ask] Also check GACATCCCGAAAGGGGTC (((..(((....))))))
[reply] -11.1

[ask] Also check GAACACGGAAACATGTTC (((((.(....).)))))
[reply] -28

[ask] Also check GATCTGGCGACAGATC ((((((....))))))
[reply] -44.1

[ask] Also check GTGTTCGAAAGAAGACAC ((((((....)))..)))
[reply] -20.8

[ask] Also check GCTGCGCGAAAGCACTGC ((.(.((....)).).))
[reply] -24.2

[ask] Also check GCTAAGCGAAAGCGTGGC ((.(.((....)).).))
[reply] -16.1
